testProtocol: NCI Yeast Anticancer Drug Screen. Data for the mec2-1 strain (AID 157)
assayConditions: S. cerevisiae mec2-1 strain, at 33.0 µM
This is part of a sample that, as a whole, favours compounds with a hit. Of some 79,000 tested, about 15% had one in any assay. The source made the active and inactive calls. Rule as the data show it: active = growth inhibition above about 70%; inactive = the rest.
Pick one: active, inactive

q: Entry `Oc1c(Br)cc(Br)cc1C1CCCCC1` : call = ?
a: active

q: Entry `Cc1nn(-c2cc(Cl)ccc2[N+](=O)[O-])c(C)c1Cl` : call = ?
a: inactive

q: Entry `Cc1ccc(S/N=C\c2ccccc2O)cc1` : call = ?
a: inactive

q: Entry COc1cc2c(c(OC)c1OC)-c1c(cc3c(c1OC)OCO3)CC(C)C(C)(O)C2OC(=O)c1ccccc1 (stereo unspecified) : call = ?
a: inactive

q: Entry `CSC(=S)Nc1cccc(C)n1` : call = ?
a: inactive

q: Entry `COc1ccc(OC)c2cc3ccccc3cc12` : call = ?
a: inactive

q: Entry `O=C1C=CC(=O)c2c(O)c(Nc3ccc(OC(F)(F)F)cc3)c(Cl)c(O)c21` : call = ?
a: active

q: Entry `c1ccc2c(c1)C(=NCCCN1CCCCCC1)c1cccn1-2` : call = ?
a: inactive

q: Entry O=C(O)C1OC1(c1cccc(Cl)c1)c1ccccc1Cl (stereo unspecified) : call = ?
a: inactive

q: Entry `COc1ccc2nc3c([N+](=O)[O-])ccc(NCCN(C)C)c3c(NCCN(C)C)c2c1` : call = ?
a: inactive

q: Entry CN1CCc2ccccc2C1Cc1ccccc1NC(=O)c1sc2ccccc2c1Cl (stereo unspecified) : call = ?
a: inactive
